Assay: qHTS of pediatric cancer cell lines to identify multiple opportunities for drug repurposing: Primary screen for control Hh wild type fibroblast cells (AID 1347106); further: nearly all actives have a fitted effect of over 55% in size
Details: Hh wild-type fibroblast viability, CellTiter-Glo luminescence, 48 h; series mostly up to 46 µM
Inconclusive results are not listed. Activity calls are given as the source filed them. The call rests on the fitted dose curve; in most records, active means well fitted cell-killing curve with a large enough effect; inconclusive means small, poorly fitted or top-dose-only effect; inactive means flat fitted curve, though single readings scatter.
# valid calls are active, inactive; nothing else

Here are 3 molecules together with their reported answers.
{"ITEM_SMILES": "CN(C)c1ccccc1CN1CCCN(Cc2ccccc2N(C)C)C1c1ccncc1", "ASSIGNED_LABEL": "inactive"}
{"ITEM_SMILES": "COc1nc(C)cnc1NS(=O)(=O)c1cccnc1-c1ccc(-c2nnco2)cc1", "ASSIGNED_LABEL": "inactive"}
{"ITEM_SMILES": "N[C@@H](CC(=O)N1CCn2c(nnc2C(F)(F)F)C1)Cc1cc(F)c(F)cc1F", "ASSIGNED_LABEL": "inactive"}

Problem: Short answer needed: outcome of this test for "O=C1NC(=O)C(c2cnc3ccccn23)=C1c1cn2c3c(cccc13)CN(C(=O)N1CCOCC1)CC2" ?
Solution: inactive

Problem: Short answer needed: outcome of this test for "NC(=O)c1ncn([C@@H]2O[C@H](CO)[C@@H](O)[C@@H]2O)n1" ?
Solution: inactive

Problem: Short answer needed: outcome of this test for "O=C(c1ccc(C=Cc2n[nH]c3ccccc23)cc1)N1CCNCC1" ?
Solution: inactive

Problem: Short answer needed: outcome of this test for "CNC(=O)c1cc(Oc2ccc(NC(=O)Nc3ccc(Cl)c(C(F)(F)F)c3)c(F)c2)ccn1" ?
Solution: inactive

Problem: Short answer needed: outcome of this test for "C[C@@H](O)[C@H]1C(=O)N2C(C(=O)OCOC(=O)C(C)(C)C)=C(SC3CN(C4=NCCS4)C3)[C@H](C)[C@H]12" ?
Solution: inactive

Problem: Short answer needed: outcome of this test for "COC(=O)Nc1ccc(-c2nc(N3CCOCC3)c3cnn(C4CCN(C(=O)OC)CC4)c3n2)cc1" ?
Solution: active

Cited source for all entries: PubChem BioAssay (NCATS)
